Reference source: patent US20170204184A1

target: T1, hPD-L1-hFc (human); experiment: ELISA, coated PD-L1-hFc
T1 construct: it may hold a signal peptide ('open reading frame of the extracellular domain'); also called PD-L1-hFc protein; human PD-L1 extracellular domain fused with human Fc tag
T1 sequence (chain, as listed by the source limits assumed): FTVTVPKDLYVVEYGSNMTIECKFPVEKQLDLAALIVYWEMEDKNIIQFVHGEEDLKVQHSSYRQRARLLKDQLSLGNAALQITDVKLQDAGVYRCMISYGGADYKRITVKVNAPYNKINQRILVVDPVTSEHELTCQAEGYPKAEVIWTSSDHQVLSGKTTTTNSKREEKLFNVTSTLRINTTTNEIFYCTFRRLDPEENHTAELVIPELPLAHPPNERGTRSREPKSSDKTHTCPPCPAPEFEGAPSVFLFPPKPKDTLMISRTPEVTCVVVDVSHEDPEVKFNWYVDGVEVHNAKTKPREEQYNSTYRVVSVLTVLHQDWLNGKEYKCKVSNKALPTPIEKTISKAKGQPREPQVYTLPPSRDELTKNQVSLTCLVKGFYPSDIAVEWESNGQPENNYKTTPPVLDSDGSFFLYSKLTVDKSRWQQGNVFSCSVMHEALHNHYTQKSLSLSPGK
READOUT: EC50 (µg/mL)
Dear colleague, please return just the value in µg/mL, with no unit written.

BINDER: m15F1 (antibody, V domains shown, Murine hybridoma IgG (printed 'mIgG'); also called 15F1-mIgG; 15F1 murine) VH: EEKLVESGGGLVKPGGSLKLSCAASGFSFSSYGMSWVRQTPEKRLEWVASISSGGSIYYPDSVKGRFTISRDNARNILYLQMSSLRSEDTAMYYCARGYDAGFAFWGQGTLVTASA VL: DIVLTQSPASLAVSLGQRATISCRASQSVSTSSYSYVHWYQQKPGQPPKLLIKYASNLESGVPARFSGSGSGTDFTLNIHPVEEEDTATYYCQHSWEIPYTFGGGTKLEIK
EC50 [µg/mL]: 0.0487
//
BINDER: m13C5 (antibody, V domains shown, Murine hybridoma IgG (printed 'mIgG'); also called 13C5-mIgG; 13C5 murine) VH: EVKLVESGGGLVKPGGSLKLSCAASGFIFRSYGMSWVRQTPEKRLEWVASISSGGSTYYPDSVKGRFTISRDNARNILYLQMSSLRSEDTAMYDCARGYDSGFAYWGQGTLVTVSE VL: DIVLTQSPASLAVSLGQRATISCRASQSVSTSSSSFMHWYQQKPGQPPKLLIKYASNLESGVPARFSGSGSGTDFTLNIHPVEEEDTATYYCQHSWEIPYTFGGGTKLEIKR
EC50 [µg/mL]: 0.0651
//
BINDER: m7B4 (antibody, V domains shown, Murine hybridoma IgG (printed 'mIgG'); also called 7B4-mIgG; 7B4 murine) VH: EVKLFESGGGLVQPGGSLKLSCVASGFDFSTYWMHWVRQAPGQGLEWIGQINPDSTTINYAPSLKDRFIISRDNAKNTLFLQMSKVRSEDTALYYCAKPGDYGYDFDCWGQGTTLTVSS VL: DVLMTQTPLYLPVSLGDQASISCRSSQIIVHSNANTYLEWFLQKPGQSPKLLIYKVSNRFSGVPDRFSGSGSGTDFTLKISRVEAEDLGVYYCFQGSHVPYTFGGGTKLEIK
EC50 [µg/mL]: 0.0314

binder m5G11 (antibody, V domains shown, Murine hybridoma IgG (printed 'mIgG'); also called 5G11-mIgG; 5G11 murine) VH: QVQLKQSGPGLVQPSQSLSITCTVSGFSLTTYGVHWVRQSPGKGLEWLGVIWRGVTTDYNAAFMSRLTITKDNSKSQVFFKMNSLQANDTAIYYCARLGFYAMDYWGQGTSVTVSS VL: SIVMTQTPKFLLVSAGDRVTITCKASQSVSNDVAWYQQKPGQSPKLLIYYAANRYTGVPDRFTGSGYGTDFTFTISIVQAEDLAVYFCQQDYTSPYTFGGGTKLEIK , EC50 observed: 0.0459
